B1: NECAB1 (parent)
chain: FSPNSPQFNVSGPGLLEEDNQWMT

# Variants of: B1
# assay_protocol: protein stability index of a GFP-peptide fusion (GPS, HEK-293T) (PSI 1-6); higher = more stable;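 further: lentivirally expressed fusions sorted by FACS into six bins by GFP to DsRed ratio, PSI derived from sequencing read proportions per bin multiplied by bin number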
# conditions: c terminus: a fixed tail appended
I would appreciate it if you labelled entries 1 when protein stability index is 3 or higher, otherwise -1.

S11Y :: -1

Q: I'd appreciate it if you could say whether `L16A` has protein stability index at least equal to 3.
Result: 1

Q: I'd appreciate it if you could say whether `S11P` has protein stability index at least equal to 3.
Result: 1

Q: I'd appreciate it if you could say whether `L15H` has protein stability index at least equal to 3.
Result: 1

Q: I'd appreciate it if you could say whether `S2C` has protein stability index at least equal to 3.
Result: -1
